- measurement-notes: Liver microsomal stability, dog
- Format: in vitro ADME
- details: 1 μM, 0.5 mg/mL microsomal protein, NADPH, 37 °C
The entries below come with measured Liver microsomal stability (% remaining after 30 min) Dog values attached.
metric-name: Liver microsomal stability (% remaining after 30 min) Dog

sample-smiles: C=CC(=O)Nc1cc(Nc2ncc(Cl)c(Nc3ccccc3S(=O)(=O)C(C)C)n2)c(OC)cc1N(C)CCN(C)C
measurement: 17

sample-smiles: C=CC(=O)Nc1cc(Nc2ncc(Cl)c(Nc3ccccc3S(=O)(=O)N(C)C)n2)c(OC)cc1N(C)CCN(C)C
measurement: 31

sample-smiles: C=CC(=O)Nc1cc(Nc2nccc(Nc3ccccc3S(=O)(=O)C(C)C)n2)c(OC)cc1N(C)CCN(C)C
measurement: 48

sample-smiles: C=CC(=O)Nc1cc(Nc2nccc(Nc3ccccc3P(C)(C)=O)n2)c(OC)cc1N(C)CCN(C)C
measurement: 73

sample-smiles: C=CC(=O)Nc1cc(Nc2ncc(F)c(Nc3ccccc3S(=O)(=O)C(C)C)n2)c(OC)cc1N(C)CCN(C)C
measurement: 27

sample-smiles: C=CC(=O)Nc1cc(Nc2ncc(I)c(Nc3ccccc3S(=O)(=O)C(C)C)n2)c(OC)cc1N(C)CCN(C)C
measurement: 19

sample-smiles: C=CC(=O)Nc1cc(Nc2ncc(F)c(Nc3ccccc3P(C)(C)=O)n2)c(OC)cc1N(C)CCN(C)C
measurement: 87
